Tested on: P. falciparum W2 (chloroquine resistant) strain
method_notes: In vitro activity against cultured W2 strain P. falciparum
Assay type: cell-based, Plasmodium falciparum
condition_info: Plasmodium falciparum, W2, 48 h, read-out: IC50 (nM) (W2)
assay_readout: IC50 (nM)
Respond numerically; units are nM and should not be typed.

Input CCN(CC)CCCC(C)Nc1ccnc2cc(Cl)ccc12 (stereo not shown) . Output IC50: 21
